test system: CDK8; settings: concentration: 1 μM, replicates: in singlicate; n = 1;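 also: KINOMEscan kinase panel screen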
Measured quantity: %Inh (%)

| Compound | Target desc | Measurement units | Value |
| --- | --- | --- | --- |
| COc1ccc(-c2oc3ncnc(N)c3c2-c2ccc(OC)cc2)cc1 [SB-589132] | CDK8 | % | 62 |
| COc1ccc(NC(=O)c2ccc(-c3cc(-c4nnc(C)o4)ccc3C)cc2)cc1 [GW595885] | CDK8 | % | 9 |
| FC(F)(F)c1cc(Nc2nccc(-c3c(-c4ccc(Cl)cc4)nn4ncccc34)n2)ccc1Cl [GW829351] | CDK8 | % | 58 |
| O=c1cc(N2CCOCC2)nc2n(Cc3cccc(Cl)c3)ccn12 [GSK2296823] | CDK8 | % | 0 |
| c1ccc(-c2ccc3c(-c4ccnc(Nc5ccc6c(c5)OCCO6)n4)cnn3n2)cc1 [GW818941] | CDK8 | % | 11 |
| FC(F)(F)c1ccc(-c2nn3ncccc3c2-c2ccnc(Nc3cccc(C(F)(F)F)c3)n2)cc1 [GW828205] | CDK8 | % | 32 |
| CC(C)(C)OC(=O)NC1CCCN(c2cc(-c3ccc4c(N)n[nH]c4c3)nc(N)n2)C1 (stereo not shown) [GSK2286096] | CDK8 | % | 0 |

====

system: GSK3B; settings: concentration: 1 μM, replicates: in singlicate; n = 1

| Molecule | Target desc | %Inh (%) |
| --- | --- | --- |
| CCCc1ccc(S(=O)(=O)NC2CCN(c3ccnc(Nc4ccc(OC)cc4)n3)C2)cc1 (centres unmarked) | GSK3B | 8 |
| COC(=O)c1c(-c2ccccc2)c2cc(Cl)ccc2c(=O)n1Cc1ccc(S(C)(=O)=O)cc1 | GSK3B | 0 |
| CSc1nn2c(=O)cc(N3CCOCC3)nc2n1Cc1cccc(Cl)c1Cl | GSK3B | 8 |
| Nc1nccc2scc(-c3ccc4c(c3)CCN4C(=O)Cc3cc(F)ccc3F)c12 | GSK3B | 1 |
| Cc1ccc(C)c(NC(=O)NCCNc2ccnc(Nc3ccc(F)cc3)n2)c1 | GSK3B | 0 |
| Cc1cccc(-c2nc(Nc3ccc4[nH]nnc4c3)c3ccccc3n2)n1 | GSK3B | 0 |
| Cl.O=S(=O)(c1cccc(F)c1)c1ccc(Nc2ncnc3cc(Br)sc23)cc1Cl | GSK3B | 31 |
| Cl.c1ccc(Cn2ncc3cc(Nc4ncnc5ccccc45)ccc32)cc1 | GSK3B | 14 |

====

tested on: ERK8; construct: gene MAPK15; conditions: concentration: 1 μM, replicates: in singlicate; n = 1
Measured quantity: %Inh (%)

| Compound | Measured quantity | Value |
| --- | --- | --- |
| Oc1ccc2ncnc(Nc3ccc(OCc4ccccc4)cc3)c2c1 [GI262866] | %Inh | 57 |
| FC(F)(F)c1ccc(-c2nn3ncccc3c2-c2ccnc(Nc3cccc(C(F)(F)F)c3)n2)cc1 [GW828205] | %Inh | 0 |
| COc1ccc(Nc2nccc(N3CCC(NC(=O)c4cccc(NC(C)=O)c4)C3)n2)cc1 (stereo not drawn) [GSK1379732] | %Inh | 5 |

====

tested on: PLK3; conditions: concentration: 1 μM, replicates: in singlicate; n = 1

| Compound | %Inh / % |
| --- | --- |
| CCc1nc(-c2cccc(C)c2)c(-c2ccnc(NC(=O)c3ccccc3)c2)s1 | 9 |
| NC(=O)c1sc(-n2cnc3ccccc32)cc1OCc1ccccc1F [GSK1024306] | 98.8 |
| CNc1nccc(-c2c(-c3ccc(F)cc3)ncn2C2CCN(C)CC2)n1 [SB-222903] | 4 |
| Cl.c1ccc(Cn2ncc3cc(Nc4ncnc5ccccc45)ccc32)cc1 [GW273749] | 2 |
| CCCc1ccc(S(=O)(=O)NC2CCN(c3ccnc(Nc4ccc(OC)cc4)n3)C2)cc1 (stereo not shown) [GSK1379737] | 0 |
| Cn1cc(-c2ccc3c(c2)CCN3C(=O)Cc2cccc(C(F)(F)F)c2)c2c(N)ncnc21 [GSK2606414] | 0 |
| CCc1nc(-c2cccc(N(C)S(=O)(=O)c3ccccc3)c2)c(-c2ccnc(Nc3ccc(N4CCN(C(C)=O)CC4)nc3)n2)s1 [GSK1645895] | 0 |

====

tested on: ACVR1B; conditions: concentration: 1 μM, replicates: in singlicate; n = 1
// values below are reported %Inh

| Compound | Measurement units | %Inh |
| --- | --- | --- |
| Nc1nc(-c2cccnc2)c(-c2ccnc3ccccc23)s1 [GW684083] | % | 10 |
| Fc1cccc(COc2ccc(Nc3ncnc4sc(-c5ccc[nH]5)cc34)cc2Cl)c1 [GW707818] | % | 2 |
| Cl.c1ccc(Cn2ncc3cc(Nc4ncnc5ccccc45)ccc32)cc1 [GW273749] | % | 0 |

====

test system: SRPK3; conditions: concentration: 1 μM, replicates: in singlicate; n = 1

| Compound | %Inh [%] |
| --- | --- |
| O=C(NCCCN1CCCC1=O)c1cnc(NCc2cc(Cl)ccc2Cl)nc1NC1CCNCC1 | 4 |
| Cl.Cn1ccc(-c2cccc(Nc3ccnc4cc(-c5nccs5)ccc34)c2)n1 [GW525701] | 0 |
| FC(F)(F)c1ccc(-c2nn3ncccc3c2-c2ccnc(Nc3cccc(C(F)(F)F)c3)n2)cc1 [GW828205] | 8 |
| CSc1nn2c(=O)cc(N3CCOCC3)nc2n1Cc1cccc(Cl)c1Cl [GSK2347225] | 0 |
| COC(=O)c1cccc(NC(=O)NCCNc2ccnc(Nc3ccc(F)cc3)n2)c1 [GSK1379883] | 7 |
| CN1c2ccc(-c3ccc(C(=O)NCCO)cc3)cc2-c2[nH]ncc2S1(=O)=O | 1 |
| COc1ccc(Nc2nccc(N3CCC(NC(=O)c4cccc(NC(C)=O)c4)C3)n2)cc1 (stereo not shown) [GSK1379732] | 0 |
| Cc1ccc(O)cc1Nc1cc(C(F)(F)F)nc2ccc(-c3ccncc3)cc12 [GW630823] | 0 |
| Fc1ccc(Nc2nccc(-c3c(-c4ccc(Cl)cc4)nn4ncccc34)n2)cc1F [GW829058] | 6 |
| O=C(Nc1n[nH]c2nc(-c3ccco3)c(Br)cc12)c1ccc(CN2CCCC2)cc1.O=C(O)[C@H](O)[C@@H](O)C(=O)O [SB-742352] | 26 |

====

test system: ERK2; construct: gene MAPK1; conditions: concentration: 1 μM, replicates: in singlicate; n = 1
Catalogue of %Inh values
Measured quantity: %Inh (%)

| Compound | Measured quantity | Value |
| --- | --- | --- |
| O=C(Nc1ccccc1)Nc1ccc(Oc2ccc3nccn3n2)cc1 | %Inh | 0 |
| Oc1ccc2ncnc(Nc3ccc(OCc4ccccc4)cc3)c2c1 | %Inh | 0 |
| Clc1cccc(-c2nc(Nc3ccncc3)c3ccccc3n2)c1 | %Inh | 12 |
| CSc1ccc(NC2=C(c3ccccc3Cl)C(=O)NC2=O)cc1 | %Inh | 0 |
| Nc1nc(-c2ccc3c(N)n[nH]c3c2)cc(N2CCC[C@@H](C(=O)Nc3ccccc3)C2)n1.O=C(O)C(F)(F)F.O=C(O)C(F)(F)F | %Inh | 0 |
| O=C(Nc1n[nH]c2nc(-c3ccco3)c(Br)cc12)c1ccc(CN2CCCC2)cc1.O=C(O)[C@H](O)[C@@H](O)C(=O)O | %Inh | 0 |
| Cl.c1ccc(Cn2ccc3cc(Nc4ncnc5ccccc45)ccc32)cc1 | %Inh | 0 |
| N#Cc1ccc(Oc2ccc(Nc3ncnc4cc[nH]c34)cc2Cl)cc1 | %Inh | 6 |
| Nc1nc(-c2ccccn2)c(-c2ccnc3ccccc23)s1 | %Inh | 0 |
| CC(C)(C)OC(=O)NC1CCCN(c2cc(-c3ccc4c(N)n[nH]c4c3)nc(N)n2)C1 (stereo not drawn) | %Inh | 0 |
| CCc1nc(-c2cccc(N(C)S(=O)(=O)c3ccccc3)c2)c(-c2ccnc(Nc3ccc(N4CCN(C(C)=O)CC4)nc3)n2)s1 | %Inh | 0 |
| C[C@@H]1CCN(C(=O)CO)C[C@@H]1N(C)c1ncnc2[nH]ccc12 | %Inh | 0 |

====

system: NEK6; settings: concentration: 1 μM, replicates: in singlicate; n = 1
Measured quantity: %Inh (%)

| Compound | Target desc | Value |
| --- | --- | --- |
| Cl.Cn1ccc(-c2cccc(Nc3ccnc4cc(-c5nccs5)ccc34)c2)n1 | NEK6 | 0 |
| Cn1ccc2ncnc(Nc3ccc(Oc4cccc(Cl)c4)c(Cl)c3)c21 | NEK6 | 25 |
| Fc1cccc(COc2ccc(Nc3ncnc4cc[nH]c34)cc2Cl)c1 | NEK6 | 11 |
| Nc1nccc2scc(-c3ccc4c(c3)CCN4C(=O)Cc3cc(F)ccc3F)c12 | NEK6 | 0 |
| CC(C)(C)OC(=O)NC1CCCN(c2cc(-c3ccc4c(N)n[nH]c4c3)nc(N)n2)C1 (stereo not shown) | NEK6 | 0 |
| Cc1ccc(O)cc1Nc1cc(C(F)(F)F)nc2ccc(-c3ccncc3)cc12 | NEK6 | 8 |
| Clc1ccc(-c2cc(-c3c[nH]nc3-c3ccccn3)ccn2)cc1 | NEK6 | 0 |
| O=C(Nc1n[nH]c2nc(-c3ccco3)c(Br)cc12)c1ccc(CN2CCCC2)cc1.O=C(O)[C@H](O)[C@@H](O)C(=O)O | NEK6 | 0 |
| CCn1c(-c2ccncc2)nc2cnccc21 | NEK6 | 6 |
| Cl.Cl.c1ccc(-c2cc3ccncc3cc2OC2CCNCC2)cc1 | NEK6 | 0 |
